test system: HIV-1; conditions: Method A; selectivity index, ratio of CC50 to EC50
For each of the compounds below, state its pSI (pCC50-pEC50).

Sample records with pSI (pCC50-pEC50):
> print(dat)
                                 chemsmiles  obsvalue
1  Cc1cc(C)c(Oc2nc(Nc3ccc(C#N)cc3)nc3[nH]cnc23)c(C)c1     <−3.6
2  Cc1cc(C)c(Nc2nc(Nc3ccc(C#N)cc3)nc3[nH]cnc23)c(C)c1      −4.1
3  COc1cc(C)c(Nc2nc(Nc3ccc(C#N)cc3)nc3[nH]cnc23)c(C)c1       <−4

// next item, pSI (pCC50-pEC50) requested
Problem: Reported pSI (pCC50-pEC50) for Cc1cc(C#N)cc(C)c1Oc1nc(Nc2ccc(C#N)cc2)nc2[nH]cnc12 : what is it?
Solution: <−4.4

----------
tested on: HIV-1; details: Method B; selectivity index, ratio of CC50 to EC50
For each of the compounds below, state its pSI (pEC50 − pCC50).
Give bare numbers.

> print(dat)
                                 chemsmiles  targetofassay  obsvalue
1  Cc1cc(C#N)cc(C)c1Nc1nc(Nc2ccc(C#N)cc2)nc2[nH]cnc12          HIV-1      −3.8
2  COc1ccc(Cn2cnc3c(Nc4c(C)cc(/C=C/C#N)cc4C)nc(Nc4ccc(C#N)cc4)nc32)cc1          HIV-1      −2.6
3  N#C/C=C/c1cc(Cl)c(Nc2nc(Nc3ccc(C#N)cc3)nc3[nH]cnc23)c(Cl)c1          HIV-1       3.0
4  COc1cc(C=C(C)C#N)cc(C)c1Nc1nc(Nc2ccc(C#N)cc2)nc2[nH]cnc12          HIV-1       3.3
5  COc1cc(/C=C/C#N)cc(Cl)c1Nc1nc(Nc2ccc(C#N)cc2)nc2[nH]cnc12          HIV-1       2.6

Give pSI (pEC50 − pCC50) for each of the items listed below.
1. Cc1cc(/C=C/C#N)cc(Cl)c1Nc1nc(Nc2ccc(C#N)cc2)nc2[nH]cnc12
2. Cc1cc(/C=C/C(=O)N(C)C)cc(C)c1Nc1nc(Nc2ccc(C#N)cc2)nc2[nH]cnc12
3. CCN(C)C(=O)/C=C/c1cc(C)c(Oc2nc(Nc3ccc(C#N)cc3)nc3nc[nH]c23)c(C)c1
4. COc1ccc(Cn2cnc3c(Nc4c(C)cc(/C=C/C#N)cc4OC)nc(Nc4ccc(C#N)cc4)nc32)cc1
5. Cc1cc(/C=C/C#N)cc(C)c1Nc1nc(Nc2ccc(C#N)cc2)nc2ncn(C)c12

Solution:
1. 3.2
2. −2.7
3. −3.2
4. −3.7
5. 3.3

----------
test system: mock-infected MT-4 cells; experiment: Method B: cytotoxicity in mock-infected MT-4 cells engineered with GFP under a constitutional promotor; format: cell-based
For each of the molecules below, state its pCC50 (−logCC50).
Numbers only.

Sample records with pCC50 (−logCC50):
> print(dat)
                                 chemsmiles  reportedendpoint  obsvalue
1  N#C/C=C/c1cc(Cl)c(Nc2nc(Nc3ccc(C#N)cc3)nc3[nH]cnc23)c(Cl)c1  pCC50 (−logCC50)       5.6
2  COc1cc(C=C(C)C#N)cc(C)c1Nc1nc(Nc2ccc(C#N)cc2)nc2[nH]cnc12  pCC50 (−logCC50)       5.1

Give pCC50 (−logCC50) for each of the items listed below.
1. COc1cc(/C=C/C#N)cc(Cl)c1Nc1nc(Nc2ccc(C#N)cc2)nc2[nH]cnc12
2. Cc1cc(/C=C/C(=O)N(C)C)cc(C)c1Nc1nc(Nc2ccc(C#N)cc2)nc2[nH]cnc12
3. Cc1cc(/C=C/C#N)cc(C)c1Nc1nc(Nc2ccc(C#N)cc2)nc2ncn(C)c12

Solution:
6.1
5.4
4.7

----------
tested on: mock-infected MT-4 cells; assay type: cell-based
For each of the compounds below, state its pCC50 (−logCC50).

> print(dat)
                                   compound  reportedendpoint  obsvalue
1  Cc1cc(C#N)cc(C)c1Oc1nc(Nc2ccc(C#N)cc2)nc2[nH]cnc12 [Compound 28]  pCC50 (−logCC50)      <4.6
2  Cc1cc(C)c(Oc2nc(Nc3ccc(C#N)cc3)nc3[nH]cnc23)c(C)c1 [Compound 23]  pCC50 (−logCC50)      <4.6
3  COc1cc(C)c(Nc2nc(Nc3ccc(C#N)cc3)nc3[nH]cnc23)c(C)c1 [Compound 25]  pCC50 (−logCC50)      <4.5

// next item, pCC50 (−logCC50) requested
Problem: Reported pCC50 (−logCC50) for Cc1cc(C)c(Nc2nc(Nc3ccc(C#N)cc3)nc3[nH]cnc23)c(C)c1 [Compound 24] : what is it?
Solution: 4.3

----------
system: HIV-1; conditions: Method B; selectivity index, ratio of CC50 to EC50
For each of the molecules below, state its pSI (pEC50 − pCC50).
Give bare numbers.

Sample records with pSI (pEC50 − pCC50):
> print(dat)
                                 chemsmiles  obsvalue
1  CCOc1cc(C)c(Nc2nc(Nc3ccc(C#N)cc3)nc3[nH]cnc23)c(C)c1      −4.0
2  CCC(=CC#N)c1cc(C)c(Nc2nc(Nc3ccc(C#N)cc3)nc3[nH]cnc23)c(C)c1       3.2

// next item, pSI (pEC50 − pCC50) requested
Problem: Reported pSI (pEC50 − pCC50) for C/C(C#N)=C(/C)c1cc(C)c(Nc2nc(Nc3ccc(C#N)cc3)nc3[nH]cnc23)c(C)c1 : what is it?
Solution: 3.1

----------
test system: HIV-1; details: Method B; selectivity index, ratio of CC50 to EC50
For each of the compounds below, state its pSI (pEC50 − pCC50).

> print(dat)
                                   compound     reportedendpoint  obsvalue
1  C/C(=C\C#N)c1cc(C)c(Nc2nc(Nc3ccc(C#N)cc3)nc3c2ncn3C)c(C)c1 [Compound 57]  pSI (pEC50 − pCC50)      >4.4
2  Cc1cc(OCC#N)cc(C)c1Nc1nc(Nc2ccc(C#N)cc2)nc2[nH]cnc12 [Compound 31]  pSI (pEC50 − pCC50)     <−4.7

// next item, pSI (pEC50 − pCC50) requested
Problem: # value lookup — system HIV-1, readout pSI (pEC50 − pCC50), item CCn1cnc2c(Nc3c(C)cc(/C=C/C#N)cc3OC)nc(Nc3ccc(C#N)cc3)nc21 [Compound 48]
Solution: >4.6

----------
system: mock-infected MT-4 cells; assay: Method B: cytotoxicity in mock-infected MT-4 cells engineered with GFP under a constitutional promotor; format: cell-based
For each of the molecules below, state its pCC50 (−logCC50).

Sample records with pCC50 (−logCC50):
> print(dat)
                                 chemsmiles  obsvalue
1  CC(C#N)=Cc1cc(C)c(Nc2nc(Nc3ccc(C#N)cc3)nc3[nH]cnc23)c(C)c1      <4.6
2  CC(C#N)=Cc1cc(C)c(Nc2nc(Nc3ccc(C#N)cc3)nc3c2ncn3C)c(C)c1      <4.6

// next item, pCC50 (−logCC50) requested
Problem: Reported pCC50 (−logCC50) for CCC(=CC#N)c1cc(C)c(Nc2nc(Nc3ccc(C#N)cc3)nc3c2ncn3C)c(C)c1 : what is it?
Solution: <4.6

----------
For each of the molecules below, state its pSI (pEC50 − pCC50).
system: HIV-1; conditions: Method B; selectivity index, ratio of CC50 to EC50

Sample records with pSI (pEC50 − pCC50):
> print(dat)
                                 chemsmiles  targetofassay  obsvalue
1  CC(C#N)=Cc1cc(C)c(Nc2nc(Nc3ccc(C#N)cc3)nc3[nH]cnc23)c(C)c1          HIV-1      >4.0
2  COc1ccc(Cn2cnc3c(Nc4ccc(C#N)cc4)nc(Nc4c(C)cc(C#N)cc4C)nc32)cc1          HIV-1      >3.9

Give pSI (pEC50 − pCC50) for each of the items listed below.
1. CCC(=CC#N)c1cc(C)c(Nc2nc(Nc3ccc(C#N)cc3)nc3c2ncn3C)c(C)c1
2. CCN(C)C(=O)/C=C/c1cc(C)c(Oc2nc(Nc3ccc(C#N)cc3)nc3ncn(Cc4ccc(OC)cc4)c23)c(C)c1
3. COc1ccc(Cn2cnc3nc(Nc4ccc(C#N)cc4)nc(Oc4c(OC)cc(/C=C/C#N)cc4OC)c32)cc1

Solution:
>3.9
<−3.8
<−4.6
